target: SARS-CoV-2 Main Protease (SARS-CoV-2); conditions: 20.0 µM
Entry flag: MET if inhibition reaches 10%; NOT MET if it does not.

Is inhibition for C=CC(=O)N1CCC(N(Cc2ccccc2C#N)C2CCC(O)CC2)CC1 (stereo unspecified) at or above 10%?
NOT MET

Now consider O=C(CCl)N1CCCc2cc(NCc3ccc(F)cc3Cl)ccc21 .
MET

Now consider O=C(CCl)N1CCN(Cc2cccc(Cl)c2)C[C@@H]1Cc1ccccc1 (stereo in doubt) .
MET

Now consider O=C(c1cc(=O)[nH]c2ccc(F)cc12)N1CCN(S(=O)(=O)c2cccc(Cl)c2)CC1 .
NOT MET

Now consider O=C(CCc1cnn[nH]1)NC(Cn1cccn1)c1ccccc1 (stereo unspecified) .
NOT MET

Now consider Cc1cccc(CS(=O)(=O)N2CCC(C(N)=O)CC2)c1 .
NOT MET

Now consider COc1cccc2c1OCC(NC(=O)c1cc(=O)[nH]c3cc(F)ccc13)C2 (stereo unspecified) .
NOT MET

Now consider Cc1cc(C)nc(NC2CCN(C(=O)CCl)CC2)n1 .
MET

Now consider O=S(=O)(CCc1ccccc1)Nc1cccnc1 .
NOT MET

Now consider C=CC(=O)N(c1ccc2ncsc2c1)C(C(=O)Nc1ccc(OC)cc1)c1cccnc1 (stereo unspecified) .
NOT MET

Now consider O=C(CCl)N1CCC(c2nc(-c3cccnc3)nc3ccccc23)CC1 .
MET

Now consider C=CC(=O)N(c1ccc2ncsc2c1)C(C(=O)Nc1cccc(CC)c1)c1cccnc1 (stereo unspecified) .
MET

Now consider Cc1cc(C)cc(CS(=O)(=O)N[C@@]23COC[C@@H]2C3)c1 (stereo in doubt) .
NOT MET

Now consider O=C(Cc1ccc2ccccc2c1)Nc1cc(C(F)(F)F)ccn1 .
NOT MET

Now consider C=CC(=O)Nc1cc(C(=O)NC[C@H](Cc2ccccc2)c2ccccn2)ccc1O (stereo in doubt) .
NOT MET

Now consider O=C(Cc1cccc(Cl)c1)Nc1cnccc1O .
NOT MET

Now consider C=CC(=O)N(c1ccc(C(C)(C)C)cc1)C(C(=O)Nc1ccc(F)cc1C)c1cccnc1 (stereo unspecified) .
NOT MET

Now consider O=C(Cc1cc(Cl)cc(Cl)c1)Nc1nncs1 .
MET

Now consider C=CC(=O)N(c1ccc(C(C)(C)C)cc1)C(C(=O)NCCc1cccc(F)c1)c1cncc(C#N)c1 (stereo unspecified) .
MET

Now consider C=CC(=O)N(c1ccc2ncsc2c1)C(C(=O)Nc1c(C)cccc1CC)c1cccnc1 (stereo unspecified) .
NOT MET

Now consider Cc1ccc(NCc2cc(NC(=O)OC(C)(C)C)ccc2Br)cn1 .
NOT MET

----------
biological target: SARS-CoV-2 Main Protease (SARS-CoV-2); details: 50.0 µM
Would you kindly list inhibition for each of these compounds?
# value in %; strip the unit string

Fill in the recorded inhibition for this compound, with SARS-CoV-2 Main Protease (SARS-CoV-2) as test system: CS(=O)(=O)NCCc1cccc(O)c1
1.46

Now consider CC(NC(=O)C(Cc1ccccc1)NC(=O)c1ccco1)c1ncco1 (stereo not drawn) .
0

Now consider Cc1ccnc(C)c1NC(=O)C(C)c1ccc(F)c(F)c1 (stereo not drawn) .
0

Now consider CC1CCCC(OCc2cccc(NC(=O)NC(C)c3ccn[nH]3)c2)C1 (stereo not drawn) .
0

Now consider C=CC(=O)N(c1ccc(C(C)(C)C)cc1)C(C(=O)NC1CC(C(=O)OC)C1)c1cccnc1 (stereo not drawn) .
0

Now consider Cc1ccncc1NS(=O)(=O)Cc1cccc(Cl)c1 .
19

Now consider Cc1ccncc1NC(=O)C(C)Cc1ccccc1 (stereo not drawn) .
0

Now consider CC(=O)N1CCN(C(=O)Cc2ccccn2)CC1 .
0

Now consider C=CC(=O)N(c1ccc(C(C)(C)C)cc1)C(C(=O)Nc1ccc2c(c1)OCO2)c1cccnc1 (stereo not drawn) .
100

Now consider O=C(NCCNc1ccncc1)c1cccc(S(=O)(=O)Nc2ccccc2-c2ccccc2)c1 .
-3.32

Now consider O=C(NCC(O)Cn1ccnn1)c1ccccc1OC1CCC1 (stereo not drawn) .
0

Now consider Cc1nnc(C2Cc3ccccc3CN2C(=O)CCl)o1 (stereo not drawn) .
18.1

Now consider O=C(NC(Cc1ccccc1)C(=O)NCc1ccno1)OCc1ccccc1 (stereo not drawn) .
0

Now consider C=CC(=O)N(c1ccc(C(C)(C)C)cc1)C(C(=O)NC(C)CC)c1cccnc1 (stereo not drawn) .
23.9

Now consider Cc1ccncc1NC(=O)Nc1cccc(C#N)c1 .
55.7

Now consider CO[C@H](C)C(=O)Nc1cnccc1C (stereo in doubt) .
6.56

Now consider CC(=O)N1CCN(CC(=O)Nc2cncc3ccccc23)CC1 .
42.4

Now consider Cc1ccc(OCCN2C(=O)C(=O)c3cccc(Cl)c32)cc1 .
77

Now consider O=C(Nc1cccnc1)Nc1cncc(Cl)c1 .
-0.075

Now consider O=C(Nc1cccnc1)Nc1cccc(Cl)c1 .
44.1

Now consider O=C1CC[C@@H](C(=O)Nc2cccc(Cl)c2)CN1 (stereo in doubt) .
-12

Now consider C=CC(=O)NCC(=O)N(CCN1CCOCC1)Cc1ccccc1Cl .
0

Now consider CC(C)(C)c1ccc(N(C(=O)c2ccc(Cl)o2)C(C(=O)NCCc2cccc(F)c2)c2cccnc2)cc1 (stereo not drawn) .
69.3
